Source listed as patent US20250002470A1.

Here the recorded pIC50 is given for each entry.
targetDesc: NLRP3 (Homo sapiens, UniProt Q96P20)
Construct: endogenous in cells
Sequence (Q96P20 whole entry): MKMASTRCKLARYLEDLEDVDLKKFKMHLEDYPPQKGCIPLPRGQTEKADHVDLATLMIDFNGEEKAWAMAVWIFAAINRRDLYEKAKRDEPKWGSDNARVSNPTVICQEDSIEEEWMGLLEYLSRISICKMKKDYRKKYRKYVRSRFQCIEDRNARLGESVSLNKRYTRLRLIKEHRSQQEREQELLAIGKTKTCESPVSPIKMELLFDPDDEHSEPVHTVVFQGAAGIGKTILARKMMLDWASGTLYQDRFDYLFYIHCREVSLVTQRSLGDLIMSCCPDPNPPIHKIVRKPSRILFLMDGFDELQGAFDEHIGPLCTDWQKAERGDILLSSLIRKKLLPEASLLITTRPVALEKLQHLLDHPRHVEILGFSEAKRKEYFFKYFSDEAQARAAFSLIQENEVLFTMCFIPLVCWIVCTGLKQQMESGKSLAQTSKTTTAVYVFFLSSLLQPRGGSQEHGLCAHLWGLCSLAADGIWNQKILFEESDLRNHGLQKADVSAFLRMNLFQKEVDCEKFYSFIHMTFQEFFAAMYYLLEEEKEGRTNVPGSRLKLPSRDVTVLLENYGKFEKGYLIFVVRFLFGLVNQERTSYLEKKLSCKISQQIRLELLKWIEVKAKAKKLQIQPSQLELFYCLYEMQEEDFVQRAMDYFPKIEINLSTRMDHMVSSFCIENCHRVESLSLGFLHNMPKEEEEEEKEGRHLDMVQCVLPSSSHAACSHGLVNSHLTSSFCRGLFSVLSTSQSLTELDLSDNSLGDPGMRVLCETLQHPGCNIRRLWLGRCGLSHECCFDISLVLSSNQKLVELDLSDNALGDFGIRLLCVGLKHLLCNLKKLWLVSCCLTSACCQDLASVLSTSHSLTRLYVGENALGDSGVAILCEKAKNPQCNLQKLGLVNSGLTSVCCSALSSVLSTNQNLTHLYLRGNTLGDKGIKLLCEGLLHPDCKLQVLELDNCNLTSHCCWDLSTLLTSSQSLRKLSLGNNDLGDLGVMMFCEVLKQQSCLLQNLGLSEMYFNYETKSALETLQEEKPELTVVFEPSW
assayName: IL-1β (interleukin-1β) secretion in IFN-γ-differentiated, LPS/ATP-stimulated THP-1 cells (half inhibition rate of NLRP3)
condition: IFN-γ 25 ng/mL, LPS 50 ng/mL, ATP 5 mM
pIC50: −log10 of the molar value.
measuredQuantity: pIC50

In [3]: df
Out[3]:
                                   molecule  recordedmeasurement
0  Oc1cc(C(F)(F)F)ccc1-c1nnc(N[C@@H]2CCCC[C@H]2O)c2ccc(F)cc12 [Embodiment 137]                 8.70
1  CN1CCC[C@@H](Nc2nnc(-c3ccc(C(F)(F)F)cc3O)c3cccc(F)c23)C1 [Embodiment 119]                 8.30
2  C[C@]1(O)C[C@@H](Nc2nnc(-c3ccc(C(F)(F)F)cc3O)c3ccncc23)C1 [Embodiment 77]                 7.71
3  Cc1cc(Cl)cc(O)c1-c1cnc(N[C@@H]2CCCN(C)C2)nn1 [Embodiment 11]                 8.40
4  CN1CCC[C@@H](Nc2nnc(-c3ccc(C(F)(F)F)cc3O)c3ccc(F)cc23)C1 [Embodiment 120]                 8.39
5  Cc1nc(N[C@@H]2CCCN(CCO)C2)nnc1-c1ccc(C(F)(F)F)cc1O [Embodiment 44]                 9.40
6  C[C@]1(O)C[C@@H](Nc2nnc(-c3ccc(C(F)(F)F)cc3O)c3ccccc23)C1 [Embodiment 65]                 7.98
7  Cc1ccc(-c2nnc(N[C@@H]3CCCN(C)C3)c3ccccc23)c(O)c1 [Embodiment 27]                 8.85

====

Here the recorded F is given for each entry.
assayName: In vivo pharmacokinetic evaluation in mice (IV and PO)
condition: CD-1 mice, PO, 20 mg/kg
measuredQuantity: F (%)

>>> print(df.to_string())
                             chemicalsmiles  recordedmeasurement
0  Oc1cc(C(F)(F)F)ccc1-c1nnc(N[C@@H]2CCCC[C@H]2O)c2cc(F)ccc12                 93.8
1  Cc1nc(N[C@@H]2CCCN([C@H](C)CO)C2)nnc1-c1ccc(C(F)(F)F)cc1O                 95.2
2  Cc1nc(N[C@@H]2CCCN([C@@H](C)CO)C2)nnc1-c1ccc(C(F)(F)F)cc1O                 78.7
3  Cc1nc(N[C@@H]2CCCN(C(C)(C)CO)C2)nnc1-c1ccc(C(F)(F)F)cc1O                 88.5
4  Cc1nc(N[C@@H]2CCCN(CCO)C2)nnc1-c1ccc(C(F)(F)F)cc1O                 95.3
5  Cc1nc(N[C@@H]2CCCC[C@H]2O)nnc1-c1ccc(C(F)(F)F)cc1O                 98.0

====

targetDesc: NLRP3 (Homo sapiens, UniProt Q96P20)
Construct: endogenous in cells
assayName: IL-1β (interleukin-1β) secretion in IFN-γ-differentiated, LPS/ATP-stimulated THP-1 cells (half inhibition rate of NLRP3)
condition: IFN-γ 25 ng/mL, LPS 50 ng/mL, ATP 5 mM
pIC50: −log10 of the molar value.
Here the recorded pIC50 is given for each entry.
measuredQuantity: pIC50

                                    molecule  recordedmeasurement
 0  Cc1cc(C(F)(F)F)cc(O)c1-c1cnc(N[C@@H]2CCCN(C)C2)nn1 [Embodiment 10]                 7.81
 1  Cc1nc(N[C@@H]2CCCN(C)C2)nnc1-c1ccc(Cl)cc1O [Embodiment 7]                 8.92
 2  Cc1nc(N[C@@H]2CCCC[C@H]2O)nnc1-c1ccc(C(F)(F)F)cc1O [Embodiment 33]                 8.24
 3  CN1CCC[C@@H](Nc2nnc(-c3ccc(C(F)(F)F)cc3O)c3ccncc23)C1 [Embodiment 31]                 8.66
 4  Cc1nc(N[C@@H]2CCCN([C@@H](C)CO)C2)nnc1-c1ccc(C(F)(F)F)cc1O [Embodiment 147]                 8.05
 5  Oc1cc(C(F)(F)F)ccc1-c1nnc(N[C@@H]2CCCC[C@H]2O)c2cccnc12 [Embodiment 71]                 7.03
 6  Cc1cc(C(F)(F)F)cc(O)c1-c1cnc(N[C@@H]2CCCN(C(C)CO)C2)nn1 (some centres unmarked) [Embodiment 47]                 8.34
 7  Cc1cc(Cl)cc(O)c1-c1cnc(N[C@@H]2CCCC[C@H]2O)nn1 [Embodiment 35]                 7.91
 8  Cc1nc(N[C@@H]2CCCN(CC3(O)CC3)C2)nnc1-c1ccc(C(F)(F)F)cc1O [Embodiment 134]                 7.85
 9  CN1CCC[C@@H](Nc2nnc(-c3ccc(C(F)(F)F)cc3O)c3cc(F)ccc23)C1 [Embodiment 121]                 8.92
10  Cc1cc(Cl)cc(O)c1-c1nnc(N[C@@H]2CCCN(C)C2)c2ccccc12 [Embodiment 116]                 7.97
11  CC(CO)N1CCC[C@@H](Nc2nnc(-c3ccc(C(F)(F)F)cc3O)c3cnccc23)C1 (some centres unmarked) [Embodiment 127]                 8.46
12  Cc1nc(N[C@@H]2CCCN([C@H](C)CO)C2)nnc1-c1ccc(C(F)(F)F)cc1O [Embodiment 148]                 7.84
13  Cc1cc(N[C@@H]2CCCN(C)C2)nnc1-c1ncc(C(F)(F)F)cc1O [Embodiment 12]                 7.51
14  Cc1cc(C)c(-c2cnc(N[C@@H]3CCCN(CCO)C3)nn2)c(O)c1 [Embodiment 2]                 7.40
15  Cc1cc(C)c(-c2cnc(N[C@@H]3CCCN(CC(=O)N[C@H]4C[C@@](C)(O)C4)C3)nn2)c(O)c1 [Embodiment 25]                 6.50
16  Cc1nc(N[C@@H]2CCCN(CC3CC3)C2)nnc1-c1ccc(C(F)(F)F)cc1O [Embodiment 146]                 8.13
